Test system: Aspergillus flavus
Experiment: Antifungal activity against Aspergillus flavus at 6.25 ug/ml after 72 hrs by well plate method
Format: functional
Conditions: read-out: DIZ
outcome.measure: zone of inhibition at 6.25 µg/mL (mm)
Your answer is read as mm, so omit the unit and give the number.

Prompt: Need zone of inhibition at 6.25 µg/mL, item Fc1ccc(-c2cc(-c3nc4cc(Cl)c(Cl)cc4[nH]3)c3ccccc3n2)cc1
Completion: 10

Prompt: Need zone of inhibition at 6.25 µg/mL, item Fc1ccc(-c2cc(-c3nc4cc(Cl)c(Cl)cc4[nH]3)c3cc(Cl)ccc3n2)cc1
Completion: 13

Prompt: Need zone of inhibition at 6.25 µg/mL, item Fc1ccc(-c2cc(-c3nc4ccccc4[nH]3)c3ccccc3n2)cc1
Completion: 11

Prompt: Need zone of inhibition at 6.25 µg/mL, item Fc1ccc(-c2cc(-c3nc4cc(Cl)c(Cl)cc4[nH]3)c3cc(F)ccc3n2)cc1
Completion: 12

Prompt: Need zone of inhibition at 6.25 µg/mL, item OC(Cn1cncn1)(Cn1cncn1)c1ccc(F)cc1F [FLUCONAZOLE]
Completion: 15

Prompt: Need zone of inhibition at 6.25 µg/mL, item Fc1ccc(-c2cc(-c3nc4ccc(Cl)cc4[nH]3)c3ccccc3n2)cc1
Completion: 11

Prompt: Need zone of inhibition at 6.25 µg/mL, item Fc1ccc(-c2cc(-c3nc4ncccc4[nH]3)c3cc(F)ccc3n2)cc1
Completion: 11

---

Test system: Escherichia coli
Experiment: Antibacterial activity against Escherichia coli at 12.5 ug/ml after 24 to 48 hrs by well plate diffusion method
Format: functional
Conditions: read-out: DIZ
outcome.measure: zone of inhibition at 12.5 µg/mL (mm)
Your answer is read as mm, so omit the unit and give the number.

Prompt: Need zone of inhibition at 12.5 µg/mL, item Fc1ccc(-c2cc(-c3nc4ccc(F)cc4[nH]3)c3ccccc3n2)cc1
Completion: 11

Prompt: Need zone of inhibition at 12.5 µg/mL, item Fc1ccc(-c2cc(-c3nc4ncccc4[nH]3)c3cc(Cl)ccc3n2)cc1
Completion: 16

Prompt: Need zone of inhibition at 12.5 µg/mL, item Fc1ccc(-c2cc(-c3nc4ccc(F)cc4[nH]3)c3cc(F)ccc3n2)cc1
Completion: 16

Prompt: Need zone of inhibition at 12.5 µg/mL, item Fc1ccc(-c2cc(-c3nc4ccc(Cl)cc4[nH]3)c3cc(Cl)ccc3n2)cc1
Completion: 12

Prompt: Need zone of inhibition at 12.5 µg/mL, item Fc1ccc(-c2cc(-c3nc4ncccc4[nH]3)c3cc(F)ccc3n2)cc1
Completion: 13

Prompt: Need zone of inhibition at 12.5 µg/mL, item Fc1ccc(-c2cc(-c3nc4ccccc4[nH]3)c3cc(F)ccc3n2)cc1
Completion: 15

Prompt: Need zone of inhibition at 12.5 µg/mL, item Fc1ccc(-c2cc(-c3nc4cc(Cl)c(Cl)cc4[nH]3)c3cc(F)ccc3n2)cc1
Completion: 12

Prompt: Need zone of inhibition at 12.5 µg/mL, item Fc1ccc(-c2cc(-c3nc4ccc(Cl)cc4[nH]3)c3cc(F)ccc3n2)cc1
Completion: 11

Prompt: Need zone of inhibition at 12.5 µg/mL, item Fc1ccc(-c2cc(-c3nc4ncccc4[nH]3)c3ccccc3n2)cc1
Completion: 14

Prompt: Need zone of inhibition at 12.5 µg/mL, item Fc1ccc(-c2cc(-c3nc4ccccc4[nH]3)c3cc(Cl)ccc3n2)cc1
Completion: 13

---

Tested on: Xanthomonas sp.
Assay: Antibacterial activity against Xanthomonas sp. at 6.25 ug/ml after 24 to 48 hrs by well plate diffusion method
Format: functional
Conditions: read-out: DIZ
Record form. Attribute: zone of inhibition at 6.25 µg/mL. Fill in for each entry.
Your answer is read as mm, so omit the unit and give the number.

Prompt: Need zone of inhibition at 6.25 µg/mL, item Fc1ccc(-c2cc(-c3nc4ccc(Cl)cc4[nH]3)c3ccccc3n2)cc1
Completion: 15

Prompt: Need zone of inhibition at 6.25 µg/mL, item Fc1ccc(-c2cc(-c3nc4ncccc4[nH]3)c3cc(Cl)ccc3n2)cc1
Completion: 15

Prompt: Need zone of inhibition at 6.25 µg/mL, item Fc1ccc(-c2cc(-c3nc4cc(Cl)c(Cl)cc4[nH]3)c3cc(Cl)ccc3n2)cc1
Completion: 14

Prompt: Need zone of inhibition at 6.25 µg/mL, item Fc1ccc(-c2cc(-c3nc4ncccc4[nH]3)c3ccccc3n2)cc1
Completion: 10

Prompt: Need zone of inhibition at 6.25 µg/mL, item Fc1ccc(-c2cc(-c3nc4cc(Cl)c(Cl)cc4[nH]3)c3ccccc3n2)cc1
Completion: 20

Prompt: Need zone of inhibition at 6.25 µg/mL, item Fc1ccc(-c2cc(-c3nc4ccccc4[nH]3)c3ccccc3n2)cc1
Completion: 11

Prompt: Need zone of inhibition at 6.25 µg/mL, item O=C(O)c1cn(C2CC2)c2cc(N3CCNCC3)c(F)cc2c1=O
Completion: 18

Prompt: Need zone of inhibition at 6.25 µg/mL, item Fc1ccc(-c2cc(-c3nc4ccccc4[nH]3)c3cc(F)ccc3n2)cc1
Completion: 14

Prompt: Need zone of inhibition at 6.25 µg/mL, item Fc1ccc(-c2cc(-c3nc4ncccc4[nH]3)c3cc(F)ccc3n2)cc1
Completion: 15

Prompt: Need zone of inhibition at 6.25 µg/mL, item COc1ccc2nc(-c3cc(-c4ccc(F)cc4)nc4ccccc34)[nH]c2c1
Completion: 12

Prompt: Need zone of inhibition at 6.25 µg/mL, item Fc1ccc(-c2cc(-c3nc4ccc(Cl)cc4[nH]3)c3cc(F)ccc3n2)cc1
Completion: 11

Prompt: Need zone of inhibition at 6.25 µg/mL, item Fc1ccc(-c2cc(-c3nc4cc(Cl)c(Cl)cc4[nH]3)c3cc(F)ccc3n2)cc1
Completion: 12

---

Test system: Aspergillus flavus
Experiment: Antifungal activity against Aspergillus flavus at 12.5 ug/ml after 72 hrs by well plate method
Type: functional
Conditions: read-out: DIZ
Record form. Attribute: zone of inhibition at 12.5 µg/mL. Fill in for each entry.
Your answer is read as mm, so omit the unit and give the number.

Prompt: Need zone of inhibition at 12.5 µg/mL, item Fc1ccc(-c2cc(-c3nc4cc(Cl)c(Cl)cc4[nH]3)c3cc(F)ccc3n2)cc1
Completion: 15

Prompt: Need zone of inhibition at 12.5 µg/mL, item Fc1ccc(-c2cc(-c3nc4ccc(Cl)cc4[nH]3)c3cc(Cl)ccc3n2)cc1
Completion: 17

Prompt: Need zone of inhibition at 12.5 µg/mL, item Fc1ccc(-c2cc(-c3nc4ccccc4[nH]3)c3ccccc3n2)cc1
Completion: 12

Prompt: Need zone of inhibition at 12.5 µg/mL, item OC(Cn1cncn1)(Cn1cncn1)c1ccc(F)cc1F
Completion: 20

Prompt: Need zone of inhibition at 12.5 µg/mL, item COc1ccc2nc(-c3cc(-c4ccc(F)cc4)nc4ccccc34)[nH]c2c1
Completion: 10

Prompt: Need zone of inhibition at 12.5 µg/mL, item Fc1ccc(-c2cc(-c3nc4ncccc4[nH]3)c3cc(Cl)ccc3n2)cc1
Completion: 10

Prompt: Need zone of inhibition at 12.5 µg/mL, item Fc1ccc(-c2cc(-c3nc4ccc(Cl)cc4[nH]3)c3cc(F)ccc3n2)cc1
Completion: 10

Prompt: Need zone of inhibition at 12.5 µg/mL, item Fc1ccc(-c2cc(-c3nc4ccc(Cl)cc4[nH]3)c3ccccc3n2)cc1
Completion: 16

Prompt: Need zone of inhibition at 12.5 µg/mL, item Fc1ccc(-c2cc(-c3nc4ncccc4[nH]3)c3ccccc3n2)cc1
Completion: 11

Prompt: Need zone of inhibition at 12.5 µg/mL, item Fc1ccc(-c2cc(-c3nc4cc(Cl)c(Cl)cc4[nH]3)c3cc(Cl)ccc3n2)cc1
Completion: 13

Prompt: Need zone of inhibition at 12.5 µg/mL, item Fc1ccc(-c2cc(-c3nc4ncccc4[nH]3)c3cc(F)ccc3n2)cc1
Completion: 14

Prompt: Need zone of inhibition at 12.5 µg/mL, item Fc1ccc(-c2cc(-c3nc4cc(Cl)c(Cl)cc4[nH]3)c3ccccc3n2)cc1
Completion: 10

Prompt: Need zone of inhibition at 12.5 µg/mL, item Fc1ccc(-c2cc(-c3nc4ccc(F)cc4[nH]3)c3ccccc3n2)cc1
Completion: 14

Prompt: Need zone of inhibition at 12.5 µg/mL, item Fc1ccc(-c2cc(-c3nc4ccccc4[nH]3)c3cc(F)ccc3n2)cc1
Completion: 10

---

System: Aspergillus niger
Experiment: Antifungal activity against Aspergillus niger at 6.25 ug/ml after 72 hrs by well plate method
Assay type: functional
Conditions: read-out: DIZ
outcome.measure: zone of inhibition at 6.25 µg/mL (mm)
Your answer is read as mm, so omit the unit and give the number.

Prompt: Quick check: zone of inhibition at 6.25 µg/mL on Aspergillus niger, item Fc1ccc(-c2cc(-c3nc4ccc(Cl)cc4[nH]3)c3ccccc3n2)cc1 ?
Completion: 15

Prompt: Quick check: zone of inhibition at 6.25 µg/mL on Aspergillus niger, item Fc1ccc(-c2cc(-c3nc4cc(Cl)c(Cl)cc4[nH]3)c3cc(F)ccc3n2)cc1 ?
Completion: 10

Prompt: Quick check: zone of inhibition at 6.25 µg/mL on Aspergillus niger, item Fc1ccc(-c2cc(-c3nc4ccccc4[nH]3)c3ccccc3n2)cc1 ?
Completion: 11

Prompt: Quick check: zone of inhibition at 6.25 µg/mL on Aspergillus niger, item Fc1ccc(-c2cc(-c3nc4ncccc4[nH]3)c3ccccc3n2)cc1 ?
Completion: 14

Prompt: Quick check: zone of inhibition at 6.25 µg/mL on Aspergillus niger, item Fc1ccc(-c2cc(-c3nc4cc(Cl)c(Cl)cc4[nH]3)c3cc(Cl)ccc3n2)cc1 ?
Completion: 12
